# Tested on: HCT-15 colon
# test-summary: NCI-60 one-dose screen, 48 h (100 = growth as untreated, 0 = no growth, -100 = all killed)
# assay-setup: 10 µM unless noted
About 83,000 compounds went through this panel and 20% of them were active in at least one assay; those are over-represented in the sample as a whole.
// growth lookup, one value per entry
The figure you give is taken to be in %; do not add the unit.

Some solved entries appear below for comparison.
compound=COc1cccc([C@H]2c3[nH]c4ccccc4c3C[C@H]3C(=O)N(CCCCCCC(=O)NO)CC(=O)N23)c1 target="HCT-15 colon" readout_kind=growth unit_abbrev=% result_value=105
compound=CCc1n(Cc2ccc3ccccc3c2)cc[n+]1Cc1ccc2ccccc2c1 target="HCT-15 colon" readout_kind=growth unit_abbrev=% result_value=70.1
compound="CCCC(=O)NC(c1ccc2c(c1)OCO2)c1ccc2cccnc2c1O (centres undefined)" target="HCT-15 colon" readout_kind=growth unit_abbrev=% result_value=35
compound=Cc1nn(-c2ccccc2)c(Oc2ccccn2)c1-c1nc2ccccc2s1 target="HCT-15 colon" readout_kind=growth unit_abbrev=% result_value=91.4
compound=CC1=Nc2cnc(Nc3ccc(OCCN4CCCCC4)cc3)nc2Nc2ccccc21 target="HCT-15 colon" readout_kind=growth unit_abbrev=% result_value=27.8

What value of measured growth is listed for CCCCCC(=O)OCC(=O)O[C@@H]1C[C@]2(C(C)C)O[C@@]1(C)[C@@H]1CC[C@@H](C)[C@H]1[C@@H]2OC(=O)/C=C/c1ccccc1 ?
68.8

What value of measured growth is listed for N#CC1CCc2c(c(-c3cn[nH]c3C(F)(F)F)nc3c(F)cc4[nH]ncc4c23)C1 (centres undefined) ?
86.1

What value of measured growth is listed for O=C(CSc1nc2ccc([N+](=O)[O-])cc2[nH]1)Nc1ccc(F)cc1 ?
64.9

What value of measured growth is listed for COc1ccc(-c2nc(/C=C3\SC(=NCc4ccccc4)NC3=O)c3ccccn23)cc1 ?
0.0387

###

# Test system: DU-145 prostate
# test-summary: NCI-60 one-dose screen, 48 h (100 = growth as untreated, 0 = no growth, -100 = all killed)
# assay-setup: 10 µM unless noted
This is part of a sample that, as a whole, favours compounds with a hit. Of some 83,000 tested, about 20% had one in any assay. The source made the active and inactive calls. The calls were made as follows: active = growth percent below 10; inactive = the rest.
// growth lookup, one value per entry

What value of measured growth is listed for CNc1nc(S(=O)c2ccc(C#N)cc2)nc2ccccc12 (centres undefined) ?
40.6% (inactive)

What value of measured growth is listed for COc1ccc(NC(=O)c2sc3nc(C)c(C(=O)/C=C/c4cccc(OC)c4)cc3c2N)cc1 ?
21.9% (inactive)

What value of measured growth is listed for CN(CCn1sc(=O)n(Cc2ccccc2)c1=O)Cc1ccc2c(Cl)cc(Cl)c(O)c2n1 ?
51.6% (inactive)

What value of measured growth is listed for COC(=O)c1cc(-c2ccc(S(C)(=O)=O)cc2)[nH]c1N/N=C/c1c(Cl)cccc1Cl ?
4.36% (active)

What value of measured growth is listed for O=C1CNC(c2ccccc2)C(c2ccccc2)N1 (centres undefined) ?
102% (inactive)

What value of measured growth is listed for COc1cc(-c2cc(-c3ccc(N(C)C)cc3)nc(N3CCC(O)CC3)c2C#N)cc(OC)c1OC ?
33% (inactive)

What value of measured growth is listed for COc1cccc([C@H]2c3[nH]c4ccccc4c3C[C@H]3C(=O)N(CCCCCCC(=O)NO)CC(=O)N23)c1 ?
76.9% (inactive)

What value of measured growth is listed for O=C1/C(=C/c2ccc(F)cc2)COc2ccc(O)cc21 ?
96.5% (inactive)

What value of measured growth is listed for COC(=O)[C@]1(C)CCC[C@]2(C)[C@H]3C[C@H]4C(C(C)C)=C[C@]3(CC[C@H]21)[C@H]1[C@@H]4[C@@H](OCCC#N)CC[C@@H]1OCCC#N ?
57% (inactive)

What value of measured growth is listed for C#CCOc1ccc2ncnc(Nc3cccc(NC(=O)C=C)c3)c2c1 ?
54% (inactive)

What value of measured growth is listed for C1=CN2CC(c3ccccc3)=NNC2c2ccccc21 (centres undefined) ?
113% (inactive)

What value of measured growth is listed for Cc1ccc(Sc2nnc(/N=C3\C(=O)Nc4ccccc43)s2)cc1 ?
114% (inactive)

What value of measured growth is listed for O=C1c2cccnc2C(=O)c2c1c(C(=O)NCCCN1CCCCC1)c1ccccn21 ?
-94.4% (active)

What value of measured growth is listed for CCN1C(=O)N(CC)C2C1NN=c1s/c(=C\c3ccc(Cl)cc3Cl)c(=O)n12 (centres undefined) ?
6% (active)

What value of measured growth is listed for O=C(/C=C/c1cccs1)c1ccc(Cl)nc1 ?
106% (inactive)

What value of measured growth is listed for CNC(=O)c1cc(Oc2ccc3nc(NC(C)=O)sc3c2)ccn1 ?
101% (inactive)

What value of measured growth is listed for CCOP(=O)(OCC)c1nc(-c2ccccc2)oc1NCc1cccnc1 ?
107% (inactive)

What value of measured growth is listed for CCCCNC(=O)Oc1ccc(/C(=C(/CC)Cc2ccccc2)c2ccc(OCCN3CCCCCC3)cc2)cc1 ?
49.9% (inactive)
